From: patent US20240368233A1

Target: T1, LHD202 chainB
T1 construct: also called LHD202B
T1 chain: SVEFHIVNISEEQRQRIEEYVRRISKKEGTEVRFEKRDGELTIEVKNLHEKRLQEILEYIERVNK
Test: BLI, steady state fit
experimental.readout: pKd
Answers are plain numbers, as −log10 of the molar value.

Returns the measured pKd for the input binder. Input: LHD202 chainA (designed binder, also called LHD202A) GRQEKVLKSIEETVRKMGVTMETHRSGNKVKVVIKGLHESQQEQLRKDVHETLRKQGVVAVTQKHGDTVTIYVTE
5.62
